test system: Bacteria; experiment: Inhibition of OXA-48 (unknown origin) expressed in Escherichia coli BL21 (DE3) at 10 uM incubated for 3 mins by spectrophotometric analysis relative to control
Readout Name: inhibition

Endpoint output: inhibition of c1ccc(/N=C2\CC(c3ccccc3)N2c2ccccc2)cc1 (racemic) . Value?
> 50%

What value of measured inhibition is listed for COc1ccc(N2/C(=N/c3ccc(I)cc3)CC2c2ccc(I)cc2)cc1 (racemic) ?
> 50%

Any idea what inhibition was measured for COc1ccc(N2/C(=N/c3ccc(C(F)(F)F)cc3)CC2c2ccc(Cl)cc2Cl)cc1 (racemic) ?
> 50%
